System: VERPE
Assay: Post-emergence herbicidal action against VERPE
Assay type: in vivo, Veronica persica
Conditions: Veronica persica, 504 h, 20 g/ha
Procedure: Seeds of monocotyledonous and dicotyledonous weed and crop plants are laid out in sandy loam soil in wood-fiber pots, covered with soil and cultivated in a greenhouse under good growth conditions. 2 to 3 weeks after sowing, the test plants are treated at the one-leaf stage. […]
Some compounds, each annotated with its measured pest or weed control at 20 g/ha.

Q: For the compound shown here, CNC(=O)c1c(OC)ccc(C(=O)Nc2nnnn2C)c1Cl , give the reported pest or weed control at 20 g/ha.
A: 90%

Q: // query: CCn1nnnc1NC(=O)c1ccc(C(F)(F)F)c(C(=O)NC)c1Br
A: 90%

Q: // query: CNC(=O)c1c(C(F)F)ccc(C(=O)Nc2nnnn2C)c1OC
A: 90%

Q: // query: CCNC(=O)c1c(C(F)(F)F)ccc(C(=O)Nc2nnnn2C)c1Br
A: 80%

Q: // query: CNC(=O)c1c(C(F)F)ccc(C(=O)Nc2nnnn2C)c1Cl
A: 90%

###

system: PHBPU; test: Pre-emergence herbicidal action against PHBPU; type: in vivo, Pharbitis purpurea; settings: dosage 80 g/ha
Some compounds, each annotated with its measured Pre-emergence action against PHBPU in %.
Enter your answer as a number in %; do not include the unit.

Field: example entries. Status: answers known.
CCc1c(C(=O)Nc2nnnn2C)ccc(C(F)(F)F)c1C(=O)NCC1CC1 | 90
Cn1nnnc1NC(=O)c1ccc(C(F)(F)F)c(C(=O)NCC(F)F)c1Cl | 80
CCn1nnnc1NC(=O)c1ccc(C(F)F)c(C(=O)NC(C)C2CC2)c1Br (centres unmarked) | 80
CCn1nnnc1NC(=O)c1ccc(Br)c(C(=O)NCC(F)(F)F)c1Cl | 80
CCc1c(C(=O)Nc2nnnn2CC)ccc(C(F)F)c1C(=O)NC | 80

Q: For the compound shown here, CCc1c(C(=O)Nc2nnnn2C)ccc(C(F)(F)F)c1C(=O)NCC(F)F , give the reported Pre-emergence action against PHBPU in %.
A: 90

Q: // query: CCn1nnnc1NC(=O)c1ccc(C(F)(F)F)c(C(=O)NC2CCC2)c1C
A: 90

Q: // query: Cn1nnnc1NC(=O)c1ccc(C(F)(F)F)c(C(=O)NC2CCC2)c1Cl
A: 80

###

tested on: VIOTR; test: Post-emergence herbicidal action against VIOTR; assay type: in vivo, Viola tricolor; conditions: 20 g/ha
Some molecules, each annotated with its measured Post-emergence action against VIOTR in %.
Enter your answer as a number in %; do not include the unit.

Field: example entries. Status: answers known.
CCCn1nnnc1NC(=O)c1ccc(C(F)(F)F)c(C(=O)NC(C)=O)c1Cl | 100
CCn1nnnc1NC(=O)c1ccc(C(F)F)c(C(=O)NC)c1C1CC1 | 90
CCn1nnnc1NC(=O)c1ccc(C(F)F)c(C(=O)NC)c1Br | 100
CCn1nnnc1NC(=O)c1ccc(C(F)F)c(C(=O)NCCOC)c1C | 100
Cn1nnnc1NC(=O)c1ccc(C(F)(F)F)c(C(=O)NCC(F)F)c1Br | 90

Q: For the molecule shown here, Cn1nnnc1NC(=O)c1ccc(C(F)(F)F)c(C(=O)NCC#N)c1Cl , give the reported Post-emergence action against VIOTR in %.
A: 80

Q: // query: CCNC(=O)c1c(C(F)F)ccc(C(=O)Nc2nnco2)c1Cl
A: 90

Q: // query: CCn1nnnc1NC(=O)c1ccc(C(F)(F)F)c(C(=O)NC(C)C2CC2)c1C1CC1 (stereo not drawn)
A: 80

Q: // query: CC(NC(=O)c1c(C(F)(F)F)ccc(C(=O)Nc2nnnn2C)c1C1CC1)C1CC1 (stereo not drawn)
A: 80

Q: // query: CCn1nnnc1NC(=O)c1ccc(C(F)F)c(C(=O)NC)c1SC
A: 100

Q: // query: CCn1nnnc1NC(=O)c1ccc(C(F)(F)F)c(C(=O)NC(C)C2CC2)c1Br (stereo not drawn)
A: 90

Q: // query: CCc1c(C(=O)Nc2nnnn2C)ccc(C(F)(F)F)c1C(=O)NC(C)C1CC1 (stereo not drawn)
A: 80

Q: // query: CCn1nnnc1NC(=O)c1ccc(Br)c(C(=O)NC(C)C)c1Cl
A: 100

Q: // query: Cc1c(C(=O)Nc2nnnn2C)ccc(C(F)(F)F)c1C(=O)NCC1CCCO1 (stereo not drawn)
A: 80

Q: // query: CCNC(=O)c1c(C(F)F)ccc(C(=O)Nc2nnnn2CC)c1C1CC1
A: 90

Q: // query: CC(NC(=O)c1c(C(F)(F)F)ccc(C(=O)Nc2nnnn2C)c1Cl)C1CC1 (stereo not drawn)
A: 90

Q: // query: CCNC(=O)c1c(C(F)F)ccc(C(=O)Nc2nnco2)c1SC
A: 80

Q: // query: CSc1c(C(=O)Nc2nnnn2C)ccc(C(F)F)c1C(=O)NC(C)C1CC1 (stereo not drawn)
A: 100

###

system: ABUTH; assay: Pre-emergence herbicidal action against ABUTH; assay type: in vivo, Abutilon theophrasti; conditions: Abutilon theophrasti, 504 h, dosage 20 g/ha, scored visually after 3 weeks vs untreated controls, 100% = plants have died, 0% = like control plants, read-out: Pre-emergence action against ABUTH (herbicidal activity in percent)
Readout: pest or weed control at 20 g/ha (%)
Enter your answer as a number in %; do not include the unit.

CCCn1nnnc1NC(=O)c1ccc(C(F)(F)F)c(C(=O)NCC)c1C [Example 3-26] | 100
CSc1c(C(=O)Nc2nnnn2C)ccc(C(F)(F)F)c1C(=O)NC1CC1 [Example 1-83] | 100
CCn1nnnc1NC(=O)c1ccc(C(F)F)c(C(=O)NC2CC2)c1Cl [Example 2-149] | 100
CCNC(=O)c1c(C(F)F)ccc(C(=O)Nc2nnnn2CC)c1CC [Example 2-278] | 100
CCNC(=O)c1c(C(F)(F)F)ccc(C(=O)Nc2nnnn2C)c1C [Example 1-26] | 100

Q: For the compound shown here, CCNC(=O)c1c(C(F)F)ccc(C(=O)Nc2nnnn2C)c1C [Example 1-45] , give the reported pest or weed control at 20 g/ha.
A: 80

Q: // query: CCCn1nnnc1NC(=O)c1ccc(C(F)(F)F)c(C(=O)NC)c1Cl [Example 3-129]
A: 100

Q: // query: CCn1nnnc1NC(=O)c1ccc(C(F)(F)F)c(C(=O)NC2CC2)c1OC [Example 2-58]
A: 100

Q: // query: Cn1nnnc1NC(=O)c1ccc(C(F)F)c(C(=O)NC2CC2)c1Br [Example 1-227]
A: 100

###

Some compounds, each annotated with its measured Post-emergence action against VERPE in %.
test system: VERPE; assay: Post-emergence herbicidal action against VERPE; format: in vivo, Veronica persica; settings: 20 g/ha
Enter your answer as a number in %; do not include the unit.

Field: example entries. Status: answers known.
CCCn1nnnc1NC(=O)c1ccc(C(F)(F)F)c(C(=O)NC2CC2)c1CC | 80
CCn1nnnc1NC(=O)c1ccc(C(F)F)c(C(=O)NCC(F)F)c1Br | 90
CCn1nnnc1NC(=O)c1ccc(C(F)(F)F)c(C(=O)NC(C)C2CC2)c1C (centres unmarked) | 80
CCn1nnnc1NC(=O)c1ccc(C(F)F)c(C(=O)NC2CC2)c1OC | 80
CCn1nnnc1NC(=O)c1ccc(C(F)(F)F)c(C(=O)NC(C)C2CC2)c1C1CC1 (centres unmarked) | 80

Q: For the compound shown here, CCCn1nnnc1NC(=O)c1ccc(C(F)(F)F)c(C(=O)NC(C)=O)c1Cl , give the reported Post-emergence action against VERPE in %.
A: 90

Q: // query: CCn1nnnc1NC(=O)c1ccc(OC)c(C(=O)NC2CC2)c1Cl
A: 90

Q: // query: CCn1nnnc1NC(=O)c1ccc(C(F)(F)F)c(C(=O)NCC(F)F)c1C1CC1
A: 80

###

test system: MATIN; assay: Post-emergence herbicidal action against MATIN; format: in vivo, Matricaria inodora; settings: dosage 5 g/ha
Some compounds, each annotated with its measured Post-emergence action against MATIN in %.
Enter your answer as a number in %; do not include the unit.

CCn1nnnc1NC(=O)c1ccc(C(F)(F)F)c(C(=O)NC)c1C1CC1 | 90
Cn1nnnc1NC(=O)c1ccc(C(F)(F)F)c(C(=O)NCC(F)F)c1C1CC1 | 80
CNC(=O)c1c(C(F)F)ccc(C(=O)Nc2nnco2)c1Cl | 80
CCCn1nnnc1NC(=O)c1ccc(C(F)(F)F)c(C(=O)NC2CC2)c1C | 90
CCn1nnnc1NC(=O)c1ccc(C(F)F)c(C(=O)NCC(F)F)c1C | 80

Q: For the compound shown here, CCn1nnnc1NC(=O)c1ccc(C(F)(F)F)c(C(=O)NCC(F)F)c1C1CC1 , give the reported Post-emergence action against MATIN in %.
A: 80

Q: // query: Cn1nnnc1NC(=O)c1ccc(C(F)(F)F)c(C(=O)NCC2CC2)c1Br
A: 80

Q: // query: CSc1c(C(=O)Nc2nnnn2C)ccc(C(F)(F)F)c1C(=O)NC(C)C1CC1 (stereo not drawn)
A: 80

Q: // query: CCNC(=O)c1c(C(F)(F)F)ccc(C(=O)Nc2nnco2)c1Cl
A: 80
